system: cathepsin C (Homo sapiens)
Construct: purchased R&D Systems 1071-CY-010
Sequence (P53634 25-134 limits assumed): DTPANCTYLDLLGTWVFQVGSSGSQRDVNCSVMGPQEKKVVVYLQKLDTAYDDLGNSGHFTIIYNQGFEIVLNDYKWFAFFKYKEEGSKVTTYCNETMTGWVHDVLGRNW
Sequence (P53634 231-394 limits assumed): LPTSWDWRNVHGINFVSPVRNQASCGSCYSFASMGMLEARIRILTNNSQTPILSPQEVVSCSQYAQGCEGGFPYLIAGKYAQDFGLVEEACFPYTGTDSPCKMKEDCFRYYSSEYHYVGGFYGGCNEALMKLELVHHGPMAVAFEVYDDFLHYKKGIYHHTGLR
Sequence (P53634 395-463 limits assumed): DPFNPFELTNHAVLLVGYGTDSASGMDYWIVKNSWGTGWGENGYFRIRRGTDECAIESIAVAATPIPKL
method-summary: Specificity of inhibitors: cathepsin C (Gly-Arg-AMC substrate)
Format: biochemical
protocol-conditions: cathepsin C, pH 4.6
experimental-endpoint: IC50

Fill blank: measured IC50 of the molecule Cc1cccc(C)c1C(=O)OCC(=O)C(CCCCN)NC(=O)C(CCCNC(=N)N)NC(=O)OCc1ccccc1 (stereo not shown) is ____.
> 16 µM

----------
system: cathepsin B (Homo sapiens, UniProt P07858)
Construct: purchased R&D Systems 953-CY-010
method-summary: Cathepsin B inhibitor kinetic characterization, fluorogenic assay with Z-Phe-Arg-AMC
Assay type: biochemical
protocol-conditions: cathepsin B, pH 6.8 (data not shown)
Protocol: Inhibitor kinetic characterization using fluorogenic assays for cathepsin B activity. […] Enzyme velocity (RFU/sec) was measured during a […] incubation period as relative fluorescent units per sec (RFU/s), calculated using the highest slope recorded for 10 consecutive readings taken at 46 sec intervals (thus, activity is calculated over a total of 460 sec). […]
experimental-endpoint: pIC50
Worth noting: pIC50 values are minus log10 of concentrations stated in mol/L.

Fill blank: measured pIC50 of the molecule Cc1cccc(C)c1C(=O)OCC(=O)C(CCCCN)NC(=O)C(CCCNC(=N)N)NC(=O)OCc1ccccc1 (stereo not shown) is ____.
7.66

----------
system: cathepsin C (Homo sapiens)
Construct: purchased R&D Systems 1071-CY-010
method-summary: Specificity of inhibitors: cathepsin C (Gly-Arg-AMC substrate)
Type: biochemical
protocol-conditions: cathepsin C, pH 7.2
Description: Specificity of inhibitors for other cysteine cathepsin proteases. The effects of Z-Arg-Lys-AOMK and Z-Glu-Lys-AOMK on cathepsin V, L, K, S, X, H and C activities were assessed. […] For all assays containing peptide-AMC substrates the fluorescent microplate reader settings were the same as outlined above for cathepsin B. For the cathepsin X assay, the plate reader was set to excitation 320 nm, emission 400 nm, gain 105, top optics and read height 1 mm. […]
experimental-endpoint: IC50 (µM)
Only the number, expressed in µM, is required.

Fill blank: measured IC50 of the compound Cc1cccc(C)c1C(=O)OCC(=O)C(CCCCN)NC(=O)C(CCCNC(=N)N)NC(=O)OCc1ccccc1 (stereo not drawn) [Z-Arg-Lys-AOMK] is ____.
0.85

----------
system: cathepsin V (Homo sapiens)
Construct: purchased R&D Systems 1080-CY-010
Sequence (O60911 114-334): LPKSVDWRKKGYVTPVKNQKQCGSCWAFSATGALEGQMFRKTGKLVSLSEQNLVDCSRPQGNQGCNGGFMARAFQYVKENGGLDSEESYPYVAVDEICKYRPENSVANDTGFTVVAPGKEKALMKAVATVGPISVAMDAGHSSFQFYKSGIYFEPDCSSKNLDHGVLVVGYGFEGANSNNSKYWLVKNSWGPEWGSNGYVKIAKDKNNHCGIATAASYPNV
method-summary: Specificity of inhibitors: cathepsin V (Z-Phe-Arg-AMC substrate)
Format: biochemical
protocol-conditions: cathepsin V, pH 4.6
pIC50: −log10 of the molar value.
experimental-endpoint: pIC50

Fill blank: measured pIC50 of the molecule Cc1cccc(C)c1C(=O)OCC(=O)C(CCCCN)NC(=O)C(CCCNC(=N)N)NC(=O)OCc1ccccc1 (stereo not shown) is ____.
< 4.80

----------
system: cathepsin K (Homo sapiens)
Construct: purchased Abcam ab157067
Sequence (P43235 115-329): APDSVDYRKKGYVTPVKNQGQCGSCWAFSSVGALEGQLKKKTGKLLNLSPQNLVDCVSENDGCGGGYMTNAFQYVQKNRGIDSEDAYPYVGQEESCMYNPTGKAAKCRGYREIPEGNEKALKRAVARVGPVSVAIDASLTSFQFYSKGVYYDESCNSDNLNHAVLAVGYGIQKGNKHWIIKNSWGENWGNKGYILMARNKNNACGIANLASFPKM
method-summary: Specificity of inhibitors: cathepsin K (Z-Phe-Arg-AMC substrate)
Assay type: biochemical
protocol-conditions: cathepsin K, pH 7.2
experimental-endpoint: IC50

molecule | IC50
Cc1cccc(C)c1C(=O)OCC(=O)C(CCCCN)NC(=O)C(CCCNC(=N)N)NC(=O)OCc1ccccc1 (centres unmarked) | > 16 µM

Fill blank: measured IC50 of the molecule Cc1cccc(C)c1C(=O)OCC(=O)C(CCCCN)NC(=O)C(CCC(=O)O)NC(=O)OCc1ccccc1 (centres unmarked) is ____.
> 16 µM

Source: patent US20240181068A1
